B1: BCL2L13 (parent)
chain: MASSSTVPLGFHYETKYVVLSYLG

Variants of: B1
Experiment: protein stability index of a GFP-peptide fusion (GPS, HEK-293T) (PSI 1-6); higher = more stable;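 note: lentivirally expressed fusions sorted by FACS into six bins by GFP to DsRed ratio, PSI derived from sequencing read proportions per bin multiplied by bin number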
Details: c terminus: a fixed tail appended
Label met when protein stability index is at or above 2; anything below gets not met.

[[record]]
mutation_spec = "Y13R"
class_name = "not met"

[[record]]
mutation_spec = "S5L"
class_name = "met"

[[record]]
mutation_spec = "G24F"
class_name = "met"

[[record]]
mutation_spec = "G24R"
class_name = "met"

[[record]]
mutation_spec = "A2T"
class_name = "met"

[[record]]
mutation_spec = "G24C"
class_name = "met"

[[record]]
mutation_spec = "S4G"
class_name = "met"

[[record]]
mutation_spec = "G10S"
class_name = "met"

[[record]]
mutation_spec = "M1F"
class_name = "met"

[[record]]
mutation_spec = "G24I"
class_name = "not met"

